biological target: human ether-à-go-go-related gene (hERG) potassium channel (human, UniProt Q12809); assay: primary screen, population patch clamp on CHO cells stably expressing hERG; higher = less effect of the substance;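 note: peak tail current of the secondary pulse compared with the same well before compound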
Sequence (Q12809 whole entry, looked up): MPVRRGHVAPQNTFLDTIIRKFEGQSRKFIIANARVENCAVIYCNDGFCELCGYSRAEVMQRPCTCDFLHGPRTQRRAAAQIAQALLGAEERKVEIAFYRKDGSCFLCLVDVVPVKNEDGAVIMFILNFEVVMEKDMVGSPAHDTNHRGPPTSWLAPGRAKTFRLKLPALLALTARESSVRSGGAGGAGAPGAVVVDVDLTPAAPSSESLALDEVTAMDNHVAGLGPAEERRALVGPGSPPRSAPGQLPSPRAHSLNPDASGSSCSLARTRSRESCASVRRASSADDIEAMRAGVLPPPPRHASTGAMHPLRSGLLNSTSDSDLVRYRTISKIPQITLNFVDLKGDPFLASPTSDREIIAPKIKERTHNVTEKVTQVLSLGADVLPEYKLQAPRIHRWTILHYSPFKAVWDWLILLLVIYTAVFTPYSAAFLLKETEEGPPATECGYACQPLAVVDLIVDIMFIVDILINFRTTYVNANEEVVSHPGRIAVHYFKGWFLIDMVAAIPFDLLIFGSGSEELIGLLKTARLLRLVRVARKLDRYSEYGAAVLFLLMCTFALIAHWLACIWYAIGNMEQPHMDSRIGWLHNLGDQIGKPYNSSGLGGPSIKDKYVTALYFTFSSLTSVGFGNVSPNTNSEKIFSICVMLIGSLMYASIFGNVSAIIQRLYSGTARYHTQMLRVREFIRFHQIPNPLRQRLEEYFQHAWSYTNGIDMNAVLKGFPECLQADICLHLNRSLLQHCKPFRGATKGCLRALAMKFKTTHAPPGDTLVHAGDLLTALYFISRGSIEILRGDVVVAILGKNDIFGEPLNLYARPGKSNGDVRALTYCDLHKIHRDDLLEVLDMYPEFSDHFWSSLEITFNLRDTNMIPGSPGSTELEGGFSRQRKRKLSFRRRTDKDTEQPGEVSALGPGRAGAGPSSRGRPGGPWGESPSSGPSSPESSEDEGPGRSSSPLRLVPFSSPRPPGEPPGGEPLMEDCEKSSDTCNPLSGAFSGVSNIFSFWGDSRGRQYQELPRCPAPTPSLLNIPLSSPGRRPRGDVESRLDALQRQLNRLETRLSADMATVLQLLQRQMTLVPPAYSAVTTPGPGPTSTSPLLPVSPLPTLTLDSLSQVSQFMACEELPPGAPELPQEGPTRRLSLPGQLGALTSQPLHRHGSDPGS
Screen size: about 310,000 compounds; about 14,000 (4.5%) showed an effect of 50% or more. The effect is printed as a negative number. For the sample, strong results were picked, then their nearest neighbours and some compounds at random.
The reader will find reported hERG current change (%, negative = inhibition) at 10uM values listed item by item below.
Answer format: numeric, % implied, no suffix.

Guide cases for hERG current change (%, negative = inhibition) at 10uM, answers given:
CCCCCCCn1c(=N)n(CC(O)c2ccco2)c2ccccc21.Cl (stereo not drawn)    -86.9
Cl.Cn1c(=N)n(CC(O)c2ccco2)c2ccccc21 (stereo not drawn)    -9.79
O=C(CCCN1C(=O)c2ccccc2C1=O)NCc1ccco1    6.15
Cc1c(NC(=O)c2ccco2)cccc1-c1nc2cccnc2s1    -45.8
CC(C)NC(=O)CCS(=O)(=O)c1ccc(Br)s1    16.1

Below: the item to evaluate.
What measured hERG current change (%, negative = inhibition) at 10uM goes with CN(C)CCNc1c2c(c(C#N)c3nc4ccccc4n13)CCCC2 ?
-23.5

* * *

target: human ether-à-go-go-related gene (hERG) potassium channel (human); assay: primary screen, population patch clamp on CHO cells stably expressing hERG; higher = less effect of the substance;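 note: peak tail current of the secondary pulse compared with the same well before compound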
The whole screen tested about 310,000 compounds, of which about 14,000 (4.5%) showed an effect of 50% or more. Effects have a minus sign here. This is one part of a sample in which strong results are shown more often than they occur.
The reader will find reported hERG current change (%, negative = inhibition) at 10uM values listed item by item below.
Answer format: numeric, % implied, no suffix.

O=C(C[n+]1ccc(C(=O)N/N=C/c2ccc(O)cc2)cc1)c1ccccc1.[Br-]    -6.07
COc1ccc(OC)c(/C=N/NC(=O)c2ccc[n+](CC(=O)c3ccccc3)c2)c1    15.3
O=C(C[n+]1ccc(C(=O)N/N=C/c2ccc(OCc3ccccc3)cc2)cc1)c1ccccc1.[Br-]    1.3

Query the reported hERG current change (%, negative = inhibition) at 10uM for human ether-à-go-go-related gene (hERG) potassium channel (human); item: CCOC(=O)c1cc(C(C)=O)c(=O)[nH]c1C
12

Query the reported hERG current change (%, negative = inhibition) at 10uM for human ether-à-go-go-related gene (hERG) potassium channel (human); item: COc1ccc(OC)c(/C=N/NC(=O)c2cc[n+](CC(=O)c3ccccc3)cc2)c1.[Br-]
-5.33

Query the reported hERG current change (%, negative = inhibition) at 10uM for human ether-à-go-go-related gene (hERG) potassium channel (human); item: O=C(N/N=C/c1ccc(Br)cc1)c1cc[n+](Cc2ccccc2)cc1.[Cl-]
-10.7

Query the reported hERG current change (%, negative = inhibition) at 10uM for human ether-à-go-go-related gene (hERG) potassium channel (human); item: CCCCOC(=O)Nc1ccc(C(=O)OCCC)cc1
-12.9

Query the reported hERG current change (%, negative = inhibition) at 10uM for human ether-à-go-go-related gene (hERG) potassium channel (human); item: CCOc1ccc(NC(=O)c2c(NC(=O)CN3CCCC3)sc3c2CCC3)cc1
-3.84

Query the reported hERG current change (%, negative = inhibition) at 10uM for human ether-à-go-go-related gene (hERG) potassium channel (human); item: CCOc1ccc(NC(=O)CN(C)C(=O)c2cccnc2Sc2ccccc2Cl)cc1OCC
-8.63

* * *

Target: human ether-à-go-go-related gene (hERG) potassium channel (human, UniProt Q12809);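 note: peak tail current of the secondary pulse compared with the same well before compound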
Experiment: primary screen, population patch clamp on CHO cells stably expressing hERG; higher = less effect of the substance
Description: Briefly, Chinese hamster ovary (CHO) cells stably expressing the hERG channel were dislodged from tissue culture flasks and dispensed into PPC plates. […] During the recording, background leak currents were estimated by a 100 ms step to -80 mV from an initial holding potential of -70 mV and subtracted from the subsequent current measurement. The campaign was conducted in two phases using slight differences in recording protocol. […]
Out of some 310,000 compounds screened, about 14,000 (4.5%) showed an effect of 50% or more. The effect is printed as a negative number. Shown is part of a subset that was picked to be rich in strong results.
recorded.endpoint: hERG current change (%, negative = inhibition) at 10uM (%)
Answer format: numeric, % implied, no suffix.

Guide cases for hERG current change (%, negative = inhibition) at 10uM, answers given:
O=C(O)c1ccc([N+](=O)[O-])c2c1C(=O)c1ccccc1C2=O    23.5
Cc1ccc2nc(N(CCCN(C)C)C(=O)COc3ccc(Cl)cc3)sc2c1.Cl    -8.71
CN(C)CCCN(C(=O)COc1ccccc1)c1nc2ccc(F)cc2s1.Cl    -68
Cc1ccc2nc(N(CCCN(C)C)C(=O)CS(=O)(=O)c3ccccc3)sc2c1.Cl    -22.7
Cc1ccc(S(=O)(=O)Nc2ccccc2/C=N/c2nc3ccccc3n2C)cc1    -13.5
Cc1ccc2[nH]c3c(c2c1)SC(C)(C)CC3=O    3.75
CN(C)CCCN(C(=O)COc1ccccc1)c1nc2ccc(Cl)cc2s1.Cl    -67.1
CN(C)CCCN(C(=O)COc1ccc(Cl)cc1)c1nc2ccc(F)cc2s1.Cl    -21.4

Below: the item to evaluate.
Query the reported hERG current change (%, negative = inhibition) at 10uM for human ether-à-go-go-related gene (hERG) potassium channel (human, UniProt Q12809); item: CCN(CC)CCN(C(=O)CCOc1ccccc1)c1nc2ccc(F)cc2s1.Cl
-8.61

* * *

target: human ether-à-go-go-related gene (hERG) potassium channel (human, UniProt Q12809); assay: primary screen, population patch clamp on CHO cells stably expressing hERG; higher = less effect of the substance;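 note: peak tail current of the secondary pulse compared with the same well before compound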
In all, about 310,000 compounds went through this assay and about 14,000 (4.5%) showed an effect of 50% or more. The effect is printed as a negative number. The list comes from a sample in which strong results are over-represented; it also holds close analogues and randomly drawn compounds.
The reader will find reported hERG current change (%, negative = inhibition) at 10uM values listed item by item below.
Answer format: numeric, % implied, no suffix.

CCCCC/C(=N/O)c1c(C)[nH]c2ccccc12    4.53
Cc1ccc(SCCNC(=O)/C=C/c2ccc(Cl)cc2)cc1    -0.0121
O=C1O/C(=C\c2ccccc2)c2ccccc21    -57.8
O=C(COC(=O)/C=C/c1ccc(Cl)cc1Cl)Nc1cc(C(F)(F)F)ccc1N1CCOCC1    8.56
Cc1ccc(-c2nnc(SCC(=O)N/N=C/c3ccc(C)s3)n2-c2ccc(C)cc2)cc1    -17.4
Cc1ccc(C(OCCN(C)C)c2cccc(C(F)(F)F)c2)cc1.O=C(O)/C=C\C(=O)O (stereo not drawn)    -58.6

Query the reported hERG current change (%, negative = inhibition) at 10uM for human ether-à-go-go-related gene (hERG) potassium channel (human, UniProt Q12809); item: COc1ccccc1CNC(=O)CCC(=O)N1C[C@H]2C[C@@H](C1)c1cccc(=O)n1C2
-5.65

Query the reported hERG current change (%, negative = inhibition) at 10uM for human ether-à-go-go-related gene (hERG) potassium channel (human, UniProt Q12809); item: O=C(Nc1ccc(F)cc1F)c1cc2ncc(CCCl)cn2n1
-12.3

Query the reported hERG current change (%, negative = inhibition) at 10uM for human ether-à-go-go-related gene (hERG) potassium channel (human, UniProt Q12809); item: Oc1ccc(/C=N/NP(=S)(c2ccccc2)c2ccccc2)cc1
-3.89

Query the reported hERG current change (%, negative = inhibition) at 10uM for human ether-à-go-go-related gene (hERG) potassium channel (human, UniProt Q12809); item: O=C(CSc1nnc(-c2cccs2)o1)N1CCCCC1
2.99

Query the reported hERG current change (%, negative = inhibition) at 10uM for human ether-à-go-go-related gene (hERG) potassium channel (human, UniProt Q12809); item: COc1ccc(C(c2nnnn2Cc2cccs2)N2CCN(c3ccc(F)cc3)CC2)cc1OC (stereo not drawn)
-69.4

Query the reported hERG current change (%, negative = inhibition) at 10uM for human ether-à-go-go-related gene (hERG) potassium channel (human, UniProt Q12809); item: O=C(c1[nH]nc2c1CCc1ccccc1-2)N1CCN(Cc2ccc3c(c2)OCO3)CC1
-26.9

Query the reported hERG current change (%, negative = inhibition) at 10uM for human ether-à-go-go-related gene (hERG) potassium channel (human, UniProt Q12809); item: CC1CC1C(=O)OCC(=O)Nc1ccccc1Oc1ccccc1 (stereo not drawn)
13.9

Query the reported hERG current change (%, negative = inhibition) at 10uM for human ether-à-go-go-related gene (hERG) potassium channel (human, UniProt Q12809); item: CO/N=C/C(C#N)=C/c1cc(C(=O)c2ccccc2)cn1C
18.4

Query the reported hERG current change (%, negative = inhibition) at 10uM for human ether-à-go-go-related gene (hERG) potassium channel (human, UniProt Q12809); item: CCOC(=O)c1ccc(NC(=O)CN2C(=O)C(C)SC(C)C2=O)cc1 (stereo not drawn)
8.95
